# target.of.assay: T1, human SEMA4A expressed on cells (UniProt ID Q9H3S1, isoform 1) (human, UniProt Q9H3S1 33-761)
# T1 sequence: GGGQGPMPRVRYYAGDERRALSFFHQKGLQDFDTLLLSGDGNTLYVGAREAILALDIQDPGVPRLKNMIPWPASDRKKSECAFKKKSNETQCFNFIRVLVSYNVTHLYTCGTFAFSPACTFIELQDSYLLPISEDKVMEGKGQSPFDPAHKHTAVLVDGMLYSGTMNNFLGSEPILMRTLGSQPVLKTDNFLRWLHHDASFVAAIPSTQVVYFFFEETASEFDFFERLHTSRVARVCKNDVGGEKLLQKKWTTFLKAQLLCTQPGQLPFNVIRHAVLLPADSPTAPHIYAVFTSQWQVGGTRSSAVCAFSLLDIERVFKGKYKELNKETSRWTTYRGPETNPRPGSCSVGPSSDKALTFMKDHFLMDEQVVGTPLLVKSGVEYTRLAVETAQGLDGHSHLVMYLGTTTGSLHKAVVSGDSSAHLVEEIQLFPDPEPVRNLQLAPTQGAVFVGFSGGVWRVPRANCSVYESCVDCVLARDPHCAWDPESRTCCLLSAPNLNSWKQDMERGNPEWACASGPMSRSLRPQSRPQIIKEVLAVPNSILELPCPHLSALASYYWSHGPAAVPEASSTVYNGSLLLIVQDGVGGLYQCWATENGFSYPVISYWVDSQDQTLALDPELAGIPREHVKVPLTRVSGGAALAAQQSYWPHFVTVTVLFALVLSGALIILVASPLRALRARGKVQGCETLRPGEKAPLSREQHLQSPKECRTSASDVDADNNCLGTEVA
# assay.overview: cell-based or functional assay
Reported Max % Cell Kill, Fab-ZAP, NCI-H929 values are given for each entry in this list.
State just the number; it will be interpreted in %.

Consider the worked cases shown below.
binder | property.name | readout.number
5Hg4-5Lg5 human Alya IgG1 (antibody, V domains shown, Humanised 5E3; human IgG1 Alya constant (239iCys, S442C, EU), lambda light chain; purified, unconjugated) VH: QVQLVQSGSELKKPGASVKVSCKASGYTFTDYWMHWVRQAPGQGLEWMGAIDTSDSYTSYNQKFKGRFVFSLDTSVSTAYLQICSLKAEDTAVYYCARDYGNFYYYAMDYWGQGTLVTVSS VL: QSVVTQPPSVSGAPGQRVTISCRSSTGAVTTSNYANWYQQLPGTAPKLLIYGTNNRAPGVPDRFSGSKSGASASLAITGLQAEDEADYYCALWYSNHWVFGGGTKLTVL | Max % Cell Kill, Fab-ZAP, NCI-H929 | 50
5Hg4-5Lg4 human Alya IgG1 (antibody, V domains shown, Humanised 5E3; human IgG1 Alya constant (239iCys, S442C, EU), lambda light chain; purified, unconjugated) VH: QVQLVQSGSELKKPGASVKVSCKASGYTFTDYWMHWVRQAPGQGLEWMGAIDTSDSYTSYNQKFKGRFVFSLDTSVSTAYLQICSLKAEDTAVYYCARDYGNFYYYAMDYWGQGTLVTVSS VL: QSALTQPPSVSGSPGQSVTISCRSSTGAVTTSNYANWYQQPPGTAPKLMIYGTNNRAPGVPDRFSGSKSGNTASLTISGLQAEDEADYYCALWYSNHWVFGGGTKLTVL | Max % Cell Kill, Fab-ZAP, NCI-H929 | 33
5Hg5-5Lg2 human Alya IgG1 (antibody, V domains shown, Humanised 5E3; human IgG1 Alya constant (239iCys, S442C, EU), lambda light chain; purified, unconjugated; also called 5HE5/5Lg2) VH: EVQLVQSGAEVKKPGESLRISCKGSGYSFTDYWMHWVRQMPGKGLEWMGAIDTSDSYTSYNQKFKGQVTISADKSISTAYLQWSSLKASDTAMYYCARDYGNFYYYAMDYWGQGTLVTVSS VL: QAVVTQEPSLTVSPGGTVTLTCRSSTGAVTTSNYANWFQQKPGQAPRTLIYGTNNRAPWTPARFSGSLLGGKAALTLLGAQPEDEAEYYCALWYSNHWVFGGGTKLTVL | Max % Cell Kill, Fab-ZAP, NCI-H929 | 51

Please find the next binder below.
Entry under test: 5Hg2-5Lg2 human Alya IgG1 (antibody, V domains shown, Humanised 5E3; human IgG1 Alya constant (239iCys, S442C, EU), lambda light chain; purified, unconjugated) VH: QVQLVQSGAEVKKPGASVKVSCKASGYTFTDYWMHWVRQAPGQRLEWMGAIDTSDSYTSYNQKFKGRVTITRDTSASTAYMELSSLRSEDTAVYYCARDYGNFYYYAMDYWGQGTLVTVSS VL: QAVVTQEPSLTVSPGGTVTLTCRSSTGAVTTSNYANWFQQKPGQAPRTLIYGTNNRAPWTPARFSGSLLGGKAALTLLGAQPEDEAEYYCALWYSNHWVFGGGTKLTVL . Its Max % Cell Kill, Fab-ZAP, NCI-H929 was 83
